Molecular target: OX2 receptor (Homo sapiens, UniProt O43614)
Construct: host or cells: CHO-K1
Sequence (O43614 whole entry): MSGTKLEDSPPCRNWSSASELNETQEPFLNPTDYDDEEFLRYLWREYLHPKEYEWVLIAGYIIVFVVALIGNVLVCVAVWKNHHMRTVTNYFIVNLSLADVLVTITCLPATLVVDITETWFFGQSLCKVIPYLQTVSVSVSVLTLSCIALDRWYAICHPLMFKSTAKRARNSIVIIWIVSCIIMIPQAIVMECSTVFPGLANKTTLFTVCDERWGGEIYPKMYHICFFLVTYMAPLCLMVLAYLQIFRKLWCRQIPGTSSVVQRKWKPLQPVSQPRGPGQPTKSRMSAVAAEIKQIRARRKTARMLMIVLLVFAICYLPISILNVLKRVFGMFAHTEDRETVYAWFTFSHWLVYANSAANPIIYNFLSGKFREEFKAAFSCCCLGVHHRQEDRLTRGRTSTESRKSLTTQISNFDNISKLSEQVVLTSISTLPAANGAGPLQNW
Test: Orexin target function test (Cisbio HTRF IP-one), CHO-K1-OX2 cells, antagonism of EC80 Orexin 2 receptor agonist
Assay type: cell-based
observed.property: IC50 (nM)
Answers are plain numbers, in nM.

> print(dat)
                                   molecule  observed.property  value
1  COc1ccc(C(=O)N2CC3C=C(c4nc(C)c(F)c(C)n4)CC3C2)c(-n2nccn2)c1 (stereo not shown) [Compound 5]               IC50     16

Give IC50 for all molecules that follow.
1. COc1cnc(OC)c(C2=CC3CN(C(=O)c4ccc(F)cc4-n4nccn4)CC3C2)n1 (stereo not shown) [Compound 50]
2. [2H]C([2H])([2H])Oc1ccc(C(=O)N2CC3C=C(c4nc(C)c(F)c(C)n4)CC3C2)c(-n2nccn2)c1 (stereo not shown) [Compound 36]
3. [2H]C([2H])([2H])c1nc(C2=CC3CN(C(=O)c4ccc(F)cc4-n4nccn4)CC3C2)nc(C([2H])([2H])[2H])c1F (stereo not shown) [Compound 30]

Outgoing:
1: 27; 2: 18; 3: 21
